I'd be grateful if you could share measured GI50 for these entries.
Tested on: NCI-H460 lung
Assay: NCI tumour cell line growth inhibition, 48 h

Example compounds with recorded GI50:
Requested read-out: GI50. Entry: Fc1cccc(Cl)c1Cn1c(-c2c(F)cccc2Cl)nc2ccccc21 13.1 µM

Request the reported GI50 associated with O=C1NC(=O)[C@@H](c2c[nH]c3ccccc23)[C@@H]1c1c[nH]c2ccccc12 > 25 µM

Can you share its GI50? I mean this compound: CC(=O)Nc1ccc(-c2csc(Nc3cccc(-c4csc(-c5ccccc5)n4)c3)n2)cc1 18.8 µM

Could you share which GI50 value was measured for CCCCCCCCCCC[C@@H](C[C@H]1OC(=O)[C@H]1CCCCCC)OC(=O)[C@@H](CC(C)C)NC=O ? 3.63 µM

So what's the measured GI50 for this one? O=C(Cn1c(C(=O)c2ccc(Cl)cc2)nc(-c2ccccc2)c1-c1ccccc1)c1ccc(Cl)cc1 > 100 µM

Hi there! I need GI50 for each item below, if you can.
1. CC[C@H](C)[C@H](NC(=O)NC(C)(C)C)C(=O)N(C)[C@H](C[C@@H](OC(C)=O)c1nc(C(=O)N[C@@H](Cc2ccccc2)C[C@H](C)C(=O)OC)cs1)C(C)C
2. O=C(Oc1ccccc1Cl)c1ccccc1Nc1cccc(C(F)(F)F)c1

["0.699 µM", "37.3 µM"]

---

System: SF-539 CNS
Assay: NCI tumour cell line growth inhibition, 48 h
Answer each item with its documented TGI.
Numbers only, in µM.

Would you mind telling me what TGI value was observed for COc1cc(C(=O)O/N=C(\N)Cc2cccc3ccccc23)cc(OC)c1OC ? 10.4

Next compound, TGI to be filled in.
// TGI lookup, key: Nc1nc(-c2ccc(Cl)cc2)cc(-c2ccc(Cl)cc2)c1-c1nc2ccccc2o1 35.7

---

System: HCT-116 colon
Assay: NCI tumour cell line growth inhibition, 48 h
Value Kind: TGI

Quick check: TGI on HCT-116 colon, item Oc1ccc(Oc2cnc3cc(Cl)ccc3n2)cc1 ? > 100 µM

So what TGI did CC(=O)OCC1OC(n2c(N)c(C#N)c(-c3cccc(Cl)c3)c(C#N)c2=S)C(OC(C)=O)C(OC(C)=O)C1OC(C)=O (stereo not given) get with HCT-116 colon? 94 µM

Field: TGI (HCT-116 colon). Entry: CCOc1ccc(NCC2CC/C(=C\c3ccc(Cl)cc3)C2=O)cc1 (stereo not given) > 62.9 µM

Hello, I am looking for reported TGI with HCT-116 colon for C=C1CCC2C(C)(CO)C(O)CCC2(C)C1C/C=C1/CCOC1=O (stereo not given) . Could you help? > 100 µM

Find TGI (HCT-116 colon) for the entry O=C1NC(=O)[C@@H](c2c[nH]c3ccccc23)[C@@H]1c1c[nH]c2ccccc12 > 25 µM

For the 5 compounds below, give their TGI values.
1. O=C1CC(c2ccsc2)c2snc(-c3ccc(Cl)cc3)c2N1 (stereo not given)
2. CNc1ccc([N+](=O)[O-])c2c(NCCCN(C)C)ccnc12
3. O=C(Nc1ccc(Nc2ccncc2)cc1)c1ccc(Nc2ccnc3ccc([N+](=O)[O-])cc23)cc1[N+](=O)[O-]
4. CCCC(=O)c1ccc(=O)n(C)c1
5. CCOC1NC(/N=C/c2ccc(OC)cc2)=C(C#N)C1C#N (stereo not given)

1: > 100 µM; 2: > 100 µM; 3: > 100 µM; 4: > 100 µM; 5: > 100 µM
